Target: CDK7/Cyclin H/MAT-1 complex (Homo sapiens)
Construct: Human CDK7 (amino acids 1-346); His6 (N); TEV protease cleavage site (N); made in house; host or cells: baculovirus-SF9 insect cells
Test: Absorbance kinetic assay (20 nM CDK7/Cyclin H/MAT-1 complex)
Type: biochemical
Settings: read-out: CDK7 (20 nM) pIC50 (converted)
measuredEndpoint: IC50 (nM)

compound	IC50 [nM]
CO[C@H]1CC[C@H](Nc2cc3c(cn2)C[C@H](C)N(C(=O)[C@@H]2CCN(C)C[C@H]2c2cccc(C)c2)C3)CC1 [Compound 177a]	28.8

(A) C[C@@H]1Cc2cnc(NCc3ccn(C)n3)nc2CN1C(=O)[C@@H]1CCN(C)C[C@H]1c1ccccc1F (relative stereo) [Compound 130]
(B) C[C@@H]1Cc2cnc(NCc3ccn(C)n3)nc2CN1C(=O)[C@H]1CCN(C)C[C@@H]1c1cccc(OC(F)(F)F)c1 (relative stereo) [Compound 128]
Exam item: // which entry reports the smaller IC50, A or B ? Please indicate the selected item by its label.
Marked response: B
(B: 18.6 nM, A: 38 nM)

* * *

Target: CDK7/Cyclin H/MAT-1 complex (Homo sapiens, UniProt P50613)
Construct: Human CDK7 (amino acids 1-346); His6 (N); TEV protease cleavage site (N); made in house; host or cells: baculovirus-SF9 insect cells
Sequence (P50613 whole entry, the tested form may be a part): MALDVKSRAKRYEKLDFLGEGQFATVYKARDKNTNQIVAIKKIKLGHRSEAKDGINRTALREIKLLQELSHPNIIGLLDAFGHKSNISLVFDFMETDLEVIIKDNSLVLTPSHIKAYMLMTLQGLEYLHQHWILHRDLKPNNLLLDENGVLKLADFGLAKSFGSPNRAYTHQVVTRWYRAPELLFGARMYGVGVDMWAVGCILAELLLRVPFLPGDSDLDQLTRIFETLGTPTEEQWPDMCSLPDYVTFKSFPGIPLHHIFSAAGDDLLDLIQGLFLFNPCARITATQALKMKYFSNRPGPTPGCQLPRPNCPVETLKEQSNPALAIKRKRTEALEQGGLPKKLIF
Sequence (P51946 whole entry partner, the tested form may be a part): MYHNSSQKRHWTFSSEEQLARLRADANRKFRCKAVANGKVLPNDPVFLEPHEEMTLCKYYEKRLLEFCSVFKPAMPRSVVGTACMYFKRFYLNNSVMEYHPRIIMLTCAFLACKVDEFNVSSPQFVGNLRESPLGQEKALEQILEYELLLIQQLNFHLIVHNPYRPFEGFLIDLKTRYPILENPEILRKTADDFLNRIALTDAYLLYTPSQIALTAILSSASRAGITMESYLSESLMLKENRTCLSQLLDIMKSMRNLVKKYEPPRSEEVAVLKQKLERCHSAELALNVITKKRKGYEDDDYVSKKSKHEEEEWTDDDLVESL
Sequence (P51948 whole entry partner, the tested form may be a part): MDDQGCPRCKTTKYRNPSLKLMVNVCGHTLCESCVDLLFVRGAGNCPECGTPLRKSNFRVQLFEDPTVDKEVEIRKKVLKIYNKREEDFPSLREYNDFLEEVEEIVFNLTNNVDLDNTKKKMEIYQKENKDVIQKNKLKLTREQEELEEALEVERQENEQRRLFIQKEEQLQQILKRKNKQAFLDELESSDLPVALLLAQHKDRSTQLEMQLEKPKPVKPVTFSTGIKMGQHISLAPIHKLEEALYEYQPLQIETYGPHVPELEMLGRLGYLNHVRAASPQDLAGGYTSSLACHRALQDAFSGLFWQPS
Assay: Flint assay, end-point fluorescence (5 nM CDK7/Cyclin H/MAT-1 complex)
Assay type: biochemical
measuredEndpoint: CDK7 (5 nM) pIC50

> print(dat)
                                    compound                              testedsystem  experimentalresult
 1  C[C@@H]1Cc2cnc(NC3CCS(=O)(=O)CC3)nc2CN1C(=O)N1CCN(C)C[C@@H]1c1ccccc1 [Compound 214]  CDK7/Cyclin H/MAT-1 complex (Homo sapiens, UniProt P50613)                 7.8
 2  Cc1ncc(CNc2ncc3c(n2)CN(C(=O)[C@H]2CCN(C)C[C@@H]2c2ccccc2)[C@H](C)C3)[nH]1 [Compound 52]  CDK7/Cyclin H/MAT-1 complex (Homo sapiens, UniProt P50613)                 7.9
 3  C[C@@H]1Cc2cnc(NCc3ccccc3)nc2CN1C(=O)[C@H]1CCN(C)C[C@@H]1c1ccccc1 [Compound 43]  CDK7/Cyclin H/MAT-1 complex (Homo sapiens, UniProt P50613)                8.11
 4  C[C@@H]1Cc2cnc(NC3CCC(OC(F)F)CC3)nc2CN1C(=O)[C@H]1CCN(C)C[C@@H]1c1ccccc1 (some centres unmarked) [Compound 69]  CDK7/Cyclin H/MAT-1 complex (Homo sapiens, UniProt P50613)                8.57
 5  C[C@@H]1Cc2cnc(NC[C@@H]3CCOC3)nc2CN1C(=O)[C@H]1CCN(C)C[C@@H]1c1ccccc1 [Compound 62]  CDK7/Cyclin H/MAT-1 complex (Homo sapiens, UniProt P50613)                8.33
 6  CN1CC[C@H](C(=O)N2Cc3nc(NCc4ccn(C)n4)ncc3CC2(C)C)[C@@H](c2ccccc2)C1 (single isomer, unassigned) [Compound 191]  CDK7/Cyclin H/MAT-1 complex (Homo sapiens, UniProt P50613)                7.41
 7  CO[C@H]1CC[C@H](Nc2ncc3c(n2)CN(C(=O)[C@H]2CCN(C)C[C@@H]2c2ccccc2)C2(CC2)C3)CC1 [Compound 192]  CDK7/Cyclin H/MAT-1 complex (Homo sapiens, UniProt P50613)                6.84
 8  Cc1cc(CNc2ncc3c(n2)CN(C(=O)[C@H]2CCN(C)C[C@@H]2c2ccccc2)[C@H](C)C3)nn1C [Compound 65]  CDK7/Cyclin H/MAT-1 complex (Homo sapiens, UniProt P50613)                7.33
 9  CCn1ccc(CNc2ncc3c(n2)CN(C(=O)[C@H]2CCN(C)C[C@@H]2c2ccccc2)[C@H](C)C3)n1 [Compound 58]  CDK7/Cyclin H/MAT-1 complex (Homo sapiens, UniProt P50613)                8.63
10  CN1CC[C@H](C(=O)N2Cc3nc(NC4CCOCC4)ncc3[C@@H]3C[C@@H]32)[C@@H](c2ccccc2)C1 [Compound 199]  CDK7/Cyclin H/MAT-1 complex (Homo sapiens, UniProt P50613)                8.27
11  C[C@@H]1Cc2cnc(NC3CCOCC3)nc2CN1C(=O)[C@H]1CCN(C)C[C@@H]1c1ccccc1 [Compound 47]  CDK7/Cyclin H/MAT-1 complex (Homo sapiens, UniProt P50613)                 8.3
12  C[C@@H]1Cc2cnc(NCc3ccn(C)n3)nc2CN1C(=O)N1CCN(C)C[C@@H]1c1ccccc1 [Compound 213]  CDK7/Cyclin H/MAT-1 complex (Homo sapiens, UniProt P50613)                 6.9
13  C[C@@H]1Cc2cnc(NC3CCN(CC(F)(F)F)CC3)nc2CN1C(=O)[C@H]1CCN(C)C[C@@H]1c1ccccc1 [Compound 45]  CDK7/Cyclin H/MAT-1 complex (Homo sapiens, UniProt P50613)                7.65
14  C[C@@H]1Cc2cnc(NC3CCOCC3)nc2CN1C(=O)[C@@H]1CC[C@@H](N(C)C)CN1c1ccccc1 (mixture of isomers) [Compound 167]  CDK7/Cyclin H/MAT-1 complex (Homo sapiens, UniProt P50613)                6.95
